The values you see were collected from ChEMBL document CHEMBL1833793.

Target protein (sequence): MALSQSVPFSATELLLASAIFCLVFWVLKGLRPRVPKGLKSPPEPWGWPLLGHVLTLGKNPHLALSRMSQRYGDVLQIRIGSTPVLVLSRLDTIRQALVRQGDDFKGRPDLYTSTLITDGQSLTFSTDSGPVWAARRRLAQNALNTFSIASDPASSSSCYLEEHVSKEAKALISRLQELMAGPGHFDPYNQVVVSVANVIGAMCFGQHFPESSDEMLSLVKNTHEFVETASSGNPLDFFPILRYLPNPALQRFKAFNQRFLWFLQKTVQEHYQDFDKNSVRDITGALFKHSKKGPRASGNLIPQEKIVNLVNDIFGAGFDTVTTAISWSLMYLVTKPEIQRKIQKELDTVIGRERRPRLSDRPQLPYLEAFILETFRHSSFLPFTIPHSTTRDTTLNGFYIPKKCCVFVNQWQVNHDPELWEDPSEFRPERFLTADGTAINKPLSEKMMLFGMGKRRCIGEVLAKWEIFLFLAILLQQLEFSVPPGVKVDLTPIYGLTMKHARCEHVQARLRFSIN

| mol | IC50 |
| --- | --- |
| CS(=O)(=O)NC[C@H]1CC[C@H](Nc2nc3c(s2)CCSc2ccccc2-3)CC1 | > 10 µM |

* * *

// reported pKi for each item listed
assayed target: Neuropeptide Y receptor type 5 (Homo sapiens)
Sequence (Q15761 whole entry): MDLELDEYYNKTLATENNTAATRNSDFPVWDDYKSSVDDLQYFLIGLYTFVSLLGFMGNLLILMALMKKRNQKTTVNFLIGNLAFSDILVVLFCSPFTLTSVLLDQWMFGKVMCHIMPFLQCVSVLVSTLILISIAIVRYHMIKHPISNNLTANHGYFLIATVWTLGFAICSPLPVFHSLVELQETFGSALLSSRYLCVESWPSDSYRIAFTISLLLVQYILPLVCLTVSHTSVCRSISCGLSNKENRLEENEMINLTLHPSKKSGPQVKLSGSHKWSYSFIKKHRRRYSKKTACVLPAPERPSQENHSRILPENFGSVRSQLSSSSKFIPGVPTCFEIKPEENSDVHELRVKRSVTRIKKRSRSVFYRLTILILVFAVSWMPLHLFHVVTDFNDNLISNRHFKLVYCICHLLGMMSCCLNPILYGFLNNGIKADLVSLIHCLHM
experimental details: Binding affinity to human NPY5 receptor
pKi: −log10 of the molar value.

| mol | pKi |
| --- | --- |
| CCS(=O)(=O)NC[C@H]1CC[C@H](Nc2nc3c(s2)CCSc2ccccc2-3)CC1 | 8.55 |
| CS(=O)(=O)NC[C@H]1CC[C@H](Nc2nc3c(s2)CCSc2ccccc2-3)CC1 | 8.82 |
| CS(=O)(=O)N[C@H]1CC[C@H](Nc2nc3c(s2)CCCc2ccc(F)cc2-3)CC1 | 7.57 |
| COc1cccc2c1OCCc1sc(N[C@H]3CC[C@H](CNS(C)(=O)=O)CC3)nc1-2 | 8.96 |
| O=S(=O)(NC[C@H]1CC[C@H](Nc2nc3c(s2)CCSc2ccccc2-3)CC1)c1cccs1 | 8.72 |
| CS(=O)(=O)NC[C@H]1CC[C@H](Nc2nc3c(s2)CCOc2ccccc2-3)CC1 | 7.79 |
| CC(C)S(=O)(=O)NCCCCCNc1nc2c(s1)CCCc1ccc(F)cc1-2 | 7.34 |
| CCS(=O)(=O)NCCCCCNc1nc2c(s1)CCSc1ccccc1-2 | 9.10 |
| O=S(=O)(NC[C@H]1CC[C@H](Nc2nc3c(s2)CCSc2ccccc2-3)CC1)c1cccc2ccccc12 | 7.86 |

* * *

assayed target: Voltage-gated inwardly rectifying potassium channel KCNH2 (Homo sapiens)
Sequence (Q12809 whole entry): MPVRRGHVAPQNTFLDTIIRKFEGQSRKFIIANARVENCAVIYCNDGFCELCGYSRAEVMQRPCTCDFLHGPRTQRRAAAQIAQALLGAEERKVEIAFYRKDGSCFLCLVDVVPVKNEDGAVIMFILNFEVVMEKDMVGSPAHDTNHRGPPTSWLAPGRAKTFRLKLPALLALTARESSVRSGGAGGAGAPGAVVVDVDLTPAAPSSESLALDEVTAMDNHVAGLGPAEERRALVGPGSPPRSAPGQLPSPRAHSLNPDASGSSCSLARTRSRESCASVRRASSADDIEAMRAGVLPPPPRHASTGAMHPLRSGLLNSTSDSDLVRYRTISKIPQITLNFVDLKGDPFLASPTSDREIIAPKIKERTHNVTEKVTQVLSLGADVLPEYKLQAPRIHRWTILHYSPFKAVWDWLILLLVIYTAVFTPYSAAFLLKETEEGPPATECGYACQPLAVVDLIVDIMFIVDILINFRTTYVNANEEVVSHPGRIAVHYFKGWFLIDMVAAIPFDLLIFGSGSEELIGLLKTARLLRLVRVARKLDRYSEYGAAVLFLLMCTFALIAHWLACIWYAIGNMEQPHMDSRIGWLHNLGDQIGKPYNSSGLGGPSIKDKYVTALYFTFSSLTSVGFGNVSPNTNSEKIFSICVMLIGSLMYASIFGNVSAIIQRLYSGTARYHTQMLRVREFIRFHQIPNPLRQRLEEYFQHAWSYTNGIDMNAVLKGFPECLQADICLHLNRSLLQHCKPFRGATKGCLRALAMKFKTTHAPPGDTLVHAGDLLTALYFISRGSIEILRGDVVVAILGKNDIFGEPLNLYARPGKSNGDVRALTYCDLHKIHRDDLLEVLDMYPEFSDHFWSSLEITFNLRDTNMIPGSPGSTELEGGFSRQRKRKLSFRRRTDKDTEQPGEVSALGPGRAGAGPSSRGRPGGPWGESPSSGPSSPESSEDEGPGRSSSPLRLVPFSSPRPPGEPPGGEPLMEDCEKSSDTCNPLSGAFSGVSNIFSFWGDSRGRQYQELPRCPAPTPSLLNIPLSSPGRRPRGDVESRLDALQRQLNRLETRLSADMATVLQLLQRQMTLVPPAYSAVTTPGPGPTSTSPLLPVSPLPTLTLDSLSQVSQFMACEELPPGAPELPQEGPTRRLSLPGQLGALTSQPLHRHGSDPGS
experimental details: Inhibition of human ERG by patch-clamp assay
reported endpoint: IC50

| mol | experimental value |
| --- | --- |
| CS(=O)(=O)NC[C@H]1CC[C@H](Nc2nc3c(s2)CCSc2ccccc2-3)CC1 | > 10 µM |

* * *

experimental details: Oral bioavailability in mouse at 2 mg/kg by HPLC analysis
Type: ADME, organism-based
condition info: in vivo

| mol | unit of measure | bioavailability |
| --- | --- | --- |
| CS(=O)(=O)NC[C@H]1CC[C@H](Nc2nc3c(s2)CCSc2ccccc2-3)CC1 | % | 42 |

* * *

assayed target: Cytochrome P450 2D6 (Homo sapiens, UniProt P10635)
Sequence (P10635 whole entry): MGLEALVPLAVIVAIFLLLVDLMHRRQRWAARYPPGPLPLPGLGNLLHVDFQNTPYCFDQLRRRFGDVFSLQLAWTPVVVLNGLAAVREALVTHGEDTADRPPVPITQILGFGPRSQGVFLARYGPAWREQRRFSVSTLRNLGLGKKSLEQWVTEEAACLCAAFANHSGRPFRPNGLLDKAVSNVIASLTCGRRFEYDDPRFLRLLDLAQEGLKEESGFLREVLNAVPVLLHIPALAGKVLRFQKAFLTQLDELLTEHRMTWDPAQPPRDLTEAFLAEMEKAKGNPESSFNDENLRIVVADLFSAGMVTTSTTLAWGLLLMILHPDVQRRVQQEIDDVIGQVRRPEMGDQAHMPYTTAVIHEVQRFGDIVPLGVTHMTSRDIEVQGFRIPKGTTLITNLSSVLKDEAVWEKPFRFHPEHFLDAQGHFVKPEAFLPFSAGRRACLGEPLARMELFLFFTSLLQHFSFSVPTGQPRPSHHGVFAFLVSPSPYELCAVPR

| mol | IC50 |
| --- | --- |
| CS(=O)(=O)NC[C@H]1CC[C@H](Nc2nc3c(s2)CCSc2ccccc2-3)CC1 | > 10 µM |
